Below, each of the compounds is paired with its reported INHIBITION value.
Tested on: Plasmodium falciparum
method summary: Screen against P. falciparum Asexual Blood Stage (ABS), at 5uM
Assay type: functional, Dd2
experimental conditions: tested at 5 uM
Screen size: about 65,000 compounds; about 2,100 (3.2%) showed an effect of 50% or more. The median lay at about -52%. Only a selection was taken, and strong results are over-represented in it overall.
quantity kind: INHIBITION (%)

                                   compound  quantity_kind  numeric_value
0          CCOc1ccc(N(C)Cc2nnc(C3CC3)o2)cc1     INHIBITION           61.5
1           CCOc1ccc(N(C)Cc2nc(C)c(C)o2)cc1     INHIBITION           43.9
2  CN(CC(=O)NCC1CCCO1)Cc1nc2c(s1)CCCC2 (stereo unspecified)     INHIBITION          -39.8
3  C=Cn1ncc(CN2C[C@@H]3C[C@@H](O)CN3C[C@@H]2Cc2ccccc2)c1C     INHIBITION          -7.65
4        CC(C)CN1CCC(NC(=O)c2ccc(F)cc2F)CC1     INHIBITION           -150
5  Cc1cccc(N2CCOCC3(C2)CN(c2ccccc2)C(=O)CO3)n1 (stereo unspecified)     INHIBITION          -58.1

###

System: Plasmodium falciparum
method summary: Screen against P. falciparum Asexual Blood Stage (ABS), at 5uM
Format: functional, Dd2
experimental conditions: tested at 5 uM
The campaign covered roughly 65,000 compounds. About 2,100 (3.2%) showed an effect of 50% or more. The median lay at about -52%. Many of the other results were omitted from the sample, so strong results are more common in it than they were.
quantity kind: INHIBITION

>>> df
                                    compound          system_tested  result
 0      CCc1ccc(CN(CCCn2ccnc2)Cc2ccc(C)s2)o1  Plasmodium falciparum   21.9%
 1  c1cnnc(N2CCCC2CNCc2cscn2)c1 (stereo unspecified)  Plasmodium falciparum   35.8%
 2           O=C(CNC(=O)c1cnccn1)Nc1ncc[nH]1  Plasmodium falciparum  -51.8%
 3  Cc1cccc(CN2C[C@@H]3CCCO[C@@H]3[C@H](Nc3ccccn3)C2)n1  Plasmodium falciparum   55.6%
 4  CN(C)CCOCC1CN(CCN(C)C)Cc2ccnn2C1 (stereo unspecified)  Plasmodium falciparum  -8.37%
 5  c1ccc2c(c1)cnn2CCCNC1CCOC2(CCOCC2)C1 (stereo unspecified)  Plasmodium falciparum   68.9%
 6  CCC(CC)C(=O)N1CCC2(CC1)c1ccccc1[C@@H](OC)[C@@H]2O  Plasmodium falciparum  -1.77%
 7  c1cnnc(N2CCCC2CNCCc2cccs2)c1 (stereo unspecified)  Plasmodium falciparum     40%
 8  c1ccc(-c2nc(CCNC3CCOC4(CCOCC4)C3)no2)cc1 (stereo unspecified)  Plasmodium falciparum  -81.3%
 9    NCCc1nc(N[C@@H](CO)c2ccccc2)c2ccccc2n1  Plasmodium falciparum  -39.4%
10  c1ccc(Cc2noc(CCNC3CCOC4(CCOCC4)C3)n2)cc1 (stereo unspecified)  Plasmodium falciparum  -43.3%
11     CC(=O)NCCNC(=O)c1cc(COc2ccccc2)[nH]n1  Plasmodium falciparum   -173%
12  Cc1nc(CNCC2CCCN2c2cccnn2)cs1 (stereo unspecified)  Plasmodium falciparum  -34.2%
13  CCn1nc(C)c(CN2CCC(c3ccn[nH]3)C2)c1C (stereo unspecified)  Plasmodium falciparum  -30.2%
14  O=C(NC1CCC1)[C@H]1CCS(=O)(=O)[C@@H]2CN(CCc3ccccc3)C[C@H]12  Plasmodium falciparum  -96.2%
15  Cc1cccc(CN2C(=O)CCC23CCN(Cc2ccoc2)CC3)n1  Plasmodium falciparum    -81%

All values here come from ChEMBL document CHEMBL4513216.
